- Test system: HSC-2
- experimentalProtocol: Synergistic cytotoxicity against human HSC-2 cells
- Assay type: functional, cell-based
reportedMetric: IC50
Please answer using a numeric value trailed by its unit.

> print(dat)
                chemicalstructure  measvalue
1  Oc1ccc(/C=C/c2cc(O)cc(O)c2)cc1     3.1 µM

Here is the next item to consider.
input: Consider the molecule shown here: `COc1cc(/C=C/C(=O)CC(=O)/C=C/c2ccc(O)c(OC)c2)ccc1O` What is its recorded IC50?
output: 3.1 µM

----------
- Test system: HCT-116
- experimentalProtocol: Synergistic antiproliferative activity against human HCT-116 cells assessed as inhibition of cell growth
- Format: functional, cell-based
reportedMetric: IC50 (µM)
API: value field is a number in µM; no unit string.

input: Consider the compound shown here: `COc1cc(/C=C/C(=O)CC(=O)/C=C/c2ccc(O)c(OC)c2)ccc1O` What is its recorded IC50?
output: 10
